Source listed as paper PMC6980386.

- Test System: FL huCD4 P6A (Homo sapiens, UniProt P01730, P6A)
- Assay Protocol: CADA down-modulation of cellular huCD4
- Assay type: cell-based
- Measurement Context: read-out: Cellular huCD4 IC50 (μM) Mean, HEK293T, CADA 48h
Measured Attribute: IC50 (µM)
The figure you give is taken to be in µM; do not add the unit.

QUERY: # input molecule: C=C1CN(S(=O)(=O)c2ccc(C)cc2)CCCN(Cc2ccccc2)CCCN(S(=O)(=O)c2ccc(C)cc2)C1 [CADA, Cyclotriazadisulfonamide] ; wanted: its IC50
RESULT: 0.96

* * *

- Test System: FL huCD4 L14A (Homo sapiens, UniProt P01730, L14A)
- Assay Protocol: CADA down-modulation of cellular huCD4
- Type: cell-based
- Measurement Context: read-out: Cellular huCD4 IC50 (μM) Mean, HEK293T, CADA 48h
Measured Attribute: IC50

QUERY: # input compound: C=C1CN(S(=O)(=O)c2ccc(C)cc2)CCCN(Cc2ccccc2)CCCN(S(=O)(=O)c2ccc(C)cc2)C1 [CADA, Cyclotriazadisulfonamide] ; wanted: its IC50
RESULT: 0.46 µM

* * *

- Test System: FL huCD4 V13A (Homo sapiens, UniProt P01730, V13A)
- Assay Protocol: CADA down-modulation of cellular huCD4
- Assay type: cell-based
- Measurement Context: read-out: Cellular huCD4 IC50 (μM) Mean, HEK293T, CADA 48h
Measured Attribute: IC50 (µM)
The figure you give is taken to be in µM; do not add the unit.

QUERY: # input compound: C=C1CN(S(=O)(=O)c2ccc(C)cc2)CCCN(Cc2ccccc2)CCCN(S(=O)(=O)c2ccc(C)cc2)C1 [CADA, Cyclotriazadisulfonamide] ; wanted: its IC50
RESULT: 0.14

* * *

- Test System: FL huCD4 A22V (Homo sapiens, UniProt P01730, A22V)
- Assay Protocol: CADA down-modulation of cellular huCD4
- Format: cell-based
- Measurement Context: read-out: Cellular huCD4 IC50 (μM) Mean, HEK293T, CADA 48h
Measured Attribute: IC50 (µM)
The figure you give is taken to be in µM; do not add the unit.

QUERY: # input molecule: C=C1CN(S(=O)(=O)c2ccc(C)cc2)CCCN(Cc2ccccc2)CCCN(S(=O)(=O)c2ccc(C)cc2)C1 [CADA, Cyclotriazadisulfonamide] ; wanted: its IC50
RESULT: 0.79

* * *

- Test System: huCD4_1–32-YFP Q24A (Homo sapiens, UniProt P01730, Q24A)
- Assay Protocol: CADA inhibition of huCD4_1–32-YFP secretion
- Assay type: cell-based
- Measurement Context: read-out: Secreted YFP IC50 (μM) Mean, HEK293T, CADA 48h
Measured Attribute: IC50 (µM)
The figure you give is taken to be in µM; do not add the unit.

QUERY: # input molecule: C=C1CN(S(=O)(=O)c2ccc(C)cc2)CCCN(Cc2ccccc2)CCCN(S(=O)(=O)c2ccc(C)cc2)C1 [CADA, Cyclotriazadisulfonamide] ; wanted: its IC50
RESULT: 4.22

* * *

- Test System: FL huCD4 L10A (Homo sapiens, UniProt P01730, L10A)
- Assay Protocol: CADA down-modulation of cellular huCD4
- Type: cell-based
- Measurement Context: read-out: Cellular huCD4 IC50 (μM) Mean, HEK293T, CADA 48h
Measured Attribute: IC50 (µM)
The figure you give is taken to be in µM; do not add the unit.

QUERY: # input compound: C=C1CN(S(=O)(=O)c2ccc(C)cc2)CCCN(Cc2ccccc2)CCCN(S(=O)(=O)c2ccc(C)cc2)C1 [CADA, Cyclotriazadisulfonamide] ; wanted: its IC50
RESULT: 0.2
